TEST: Solubility of the compound in distilled water
Type: physicochemical
MEASURED_METRIC: solubility

CC(C)c1[nH]nc(O[C@@H]2O[C@H](CO)[C@@H](O)[C@H](O)[C@H]2O)c1Cc1ccccc1    19000 µg/mL
CC(C)c1[nH]nc(O[C@@H]2O[C@H](CO)[C@@H](O)[C@H](O)[C@H]2O)c1Cc1ccccc1OCc1ccccc1    240 µg/mL

Would you kindly share the measured solubility for Cc1ccc(Cc2c(O[C@@H]3O[C@H](CO)[C@@H](O)[C@H](O)[C@H]3O)n[nH]c2C(C)C)c(C)c1 ?
3700 µg/mL

----------
In this section we review reported pIC50 values for a set of compounds.
SYSTEM_NAME: Sodium/glucose cotransporter 2 (Homo sapiens, UniProt P31639)
Sequence (P31639 whole entry): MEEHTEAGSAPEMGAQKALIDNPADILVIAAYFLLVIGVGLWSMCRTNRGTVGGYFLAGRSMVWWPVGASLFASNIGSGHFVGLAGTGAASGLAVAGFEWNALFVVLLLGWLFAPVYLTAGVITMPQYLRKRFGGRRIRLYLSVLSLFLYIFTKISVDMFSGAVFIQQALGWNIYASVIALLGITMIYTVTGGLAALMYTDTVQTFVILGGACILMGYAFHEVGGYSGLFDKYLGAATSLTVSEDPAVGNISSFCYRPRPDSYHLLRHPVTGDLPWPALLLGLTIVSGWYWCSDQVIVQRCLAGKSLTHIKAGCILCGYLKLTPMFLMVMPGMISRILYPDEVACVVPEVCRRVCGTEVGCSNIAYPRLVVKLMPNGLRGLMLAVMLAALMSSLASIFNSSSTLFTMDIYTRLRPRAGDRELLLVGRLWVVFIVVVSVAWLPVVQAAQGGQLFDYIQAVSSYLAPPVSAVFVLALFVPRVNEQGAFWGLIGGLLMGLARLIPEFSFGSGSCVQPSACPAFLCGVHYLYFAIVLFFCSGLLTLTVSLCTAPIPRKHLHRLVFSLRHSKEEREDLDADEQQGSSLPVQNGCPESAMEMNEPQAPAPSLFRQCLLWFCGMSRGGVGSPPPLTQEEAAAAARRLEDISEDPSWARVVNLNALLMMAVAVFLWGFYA
TEST: Inhibition of human SGLT2 expressed in COS7 cells assessed as reduction of [14C]-AMG uptake
Please treat pIC50 as minus the base-10 logarithm of the molar concentration.

CC(C)c1[nH]nc(O[C@@H]2O[C@H](CO)[C@@H](O)[C@H](O)[C@H]2O)c1Cc1cccc(O)c1    4.88

Proceeding to the next compound to report its pIC50.
Would you kindly share the measured pIC50 for CC(C)c1[nH]nc(O[C@@H]2O[C@H](CO)[C@@H](O)[C@H](O)[C@H]2O)c1Cc1ccc(F)cc1 ?
5.38

----------
TEST: Metabolic stability of the compound in rat intestinal microsomes assessed as compound remaining at 50 uM after 30 mins
Format: ADME, Intestine
CONDITION_CONTEXT: intestinal microsomes, read-out: Stability
MEASURED_METRIC: remaining at 0.5 h, 50 µM (%)
Enter your answer as a number in %; do not include the unit.

CC(C)c1[nH]nc(O[C@@H]2O[C@H](CO)[C@@H](O)[C@H](O)[C@H]2O)c1Cc1ccccc1OCc1ccccc1    71

Would you kindly share the measured remaining at 0.5 h, 50 µM for Cc1ccc(Cc2c(O[C@@H]3O[C@H](CO)[C@@H](O)[C@H](O)[C@H]3O)n[nH]c2C(C)C)c(C)c1 ?
91

----------
TEST: Metabolic stability of the compound in rat intestinal microsomes assessed as compound remaining at 50 uM after 60 mins
Format: ADME, Intestine
CONDITION_CONTEXT: intestinal microsomes, read-out: Stability
MEASURED_METRIC: remaining at 1 h, 50 µM (%)
Enter your answer as a number in %; do not include the unit.

CC(C)c1[nH]nc(O[C@@H]2O[C@H](CO)[C@@H](O)[C@H](O)[C@H]2O)c1Cc1ccccc1OCc1ccccc1    51

Proceeding to the next molecule to report its remaining at 1 h, 50 µM.
Would you kindly share the measured remaining at 1 h, 50 µM for Cc1ccc(Cc2c(O[C@@H]3O[C@H](CO)[C@@H](O)[C@H](O)[C@H]3O)n[nH]c2C(C)C)c(C)c1 ?
67

----------
SYSTEM_NAME: Sodium/glucose cotransporter 1 (Rattus norvegicus, UniProt P53790)
Sequence (P53790 whole entry): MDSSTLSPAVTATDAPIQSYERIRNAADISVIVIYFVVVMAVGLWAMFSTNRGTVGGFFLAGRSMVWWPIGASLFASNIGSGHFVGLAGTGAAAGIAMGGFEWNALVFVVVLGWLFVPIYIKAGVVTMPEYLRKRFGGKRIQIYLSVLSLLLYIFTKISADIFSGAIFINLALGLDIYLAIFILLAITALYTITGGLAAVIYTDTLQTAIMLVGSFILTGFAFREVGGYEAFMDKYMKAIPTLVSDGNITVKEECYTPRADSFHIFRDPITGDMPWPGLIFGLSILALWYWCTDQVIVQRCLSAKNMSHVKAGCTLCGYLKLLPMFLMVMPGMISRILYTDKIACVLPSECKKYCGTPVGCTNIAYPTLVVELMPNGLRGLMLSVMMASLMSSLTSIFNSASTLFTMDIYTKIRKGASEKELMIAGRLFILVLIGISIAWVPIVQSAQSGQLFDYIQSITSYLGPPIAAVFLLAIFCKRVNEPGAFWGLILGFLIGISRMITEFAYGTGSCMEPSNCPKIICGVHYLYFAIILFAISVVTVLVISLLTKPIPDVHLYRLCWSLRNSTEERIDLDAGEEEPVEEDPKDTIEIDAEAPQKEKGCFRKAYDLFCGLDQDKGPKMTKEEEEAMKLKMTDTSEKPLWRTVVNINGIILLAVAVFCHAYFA
TEST: Inhibition of rat SGLT1 expressed in COS7 cells assessed as reduction of [14C]-AMG uptake
In this section we review reported pIC50 values for a set of compounds.
Please treat pIC50 as minus the base-10 logarithm of the molar concentration.

Answered cases to consult:
Cc1cc(O)ccc1Cc1c(C(C)C)n[nH]c1O[C@@H]1O[C@H](CO)[C@@H](O)[C@H](O)[C@H]1O    6.74
CC(C)c1[nH]nc(O[C@@H]2O[C@H](CO)[C@@H](O)[C@H](O)[C@H]2O)c1Cc1ccccc1OCc1ccccc1    6.51
OC[C@H]1O[C@@H](Oc2n[nH]c(C(F)(F)F)c2Cc2ccccc2OCc2ccccc2)[C@H](O)[C@@H](O)[C@@H]1O    6.64

Proceeding to the next compound to report its pIC50.
Would you kindly share the measured pIC50 for Cc1ccc(Cc2c(O[C@@H]3O[C@H](CO)[C@@H](O)[C@H](O)[C@H]3O)n[nH]c2C(C)C)c(C)c1 ?
7.17

----------
SYSTEM_NAME: Sodium/glucose cotransporter 2 (Homo sapiens, UniProt P31639)
TEST: Inhibition of human SGLT2 expressed in COS7 cells assessed as reduction of [14C]-AMG uptake
MEASURED_METRIC: IC50 (nM)
Enter your answer as a number in nM; do not include the unit.

COc1ccc(Cc2c(O[C@@H]3O[C@H](CO)[C@@H](O)[C@H](O)[C@H]3O)n[nH]c2C(C)C)cc1    377

Would you kindly share the measured IC50 for CC(C)c1[nH]nc(O[C@@H]2O[C@H](CO)[C@@H](O)[C@H](O)[C@H]2O)c1Cc1ccc(O)cc1 ?
285

Would you kindly share the measured IC50 for OC[C@H]1O[C@@H](Oc2n[nH]c(C(F)(F)F)c2Cc2ccccc2)[C@H](O)[C@@H](O)[C@@H]1O ?
342

----------
SYSTEM_NAME: Sodium/glucose cotransporter 2 (Rattus norvegicus, UniProt P53792)
Sequence (P53792 whole entry): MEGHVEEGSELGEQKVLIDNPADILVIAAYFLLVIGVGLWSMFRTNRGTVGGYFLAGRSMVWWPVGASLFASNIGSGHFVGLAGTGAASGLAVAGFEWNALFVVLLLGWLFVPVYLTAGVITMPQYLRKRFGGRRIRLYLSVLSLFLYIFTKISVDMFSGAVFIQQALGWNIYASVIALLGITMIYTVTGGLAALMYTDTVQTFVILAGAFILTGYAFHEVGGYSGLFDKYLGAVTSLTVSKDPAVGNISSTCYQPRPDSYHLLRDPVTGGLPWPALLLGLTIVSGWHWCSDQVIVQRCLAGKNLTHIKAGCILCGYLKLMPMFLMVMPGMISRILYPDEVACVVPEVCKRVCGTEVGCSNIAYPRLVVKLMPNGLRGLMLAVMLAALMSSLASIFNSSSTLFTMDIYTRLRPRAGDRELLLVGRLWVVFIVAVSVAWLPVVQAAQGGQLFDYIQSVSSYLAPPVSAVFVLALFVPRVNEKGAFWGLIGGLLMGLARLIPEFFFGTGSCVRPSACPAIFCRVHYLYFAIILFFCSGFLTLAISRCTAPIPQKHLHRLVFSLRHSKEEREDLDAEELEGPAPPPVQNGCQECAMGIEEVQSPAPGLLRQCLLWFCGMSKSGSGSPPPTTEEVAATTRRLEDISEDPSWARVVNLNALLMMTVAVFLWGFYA
TEST: Inhibition of rat SGLT2 expressed in COS7 cells assessed as reduction of [14C]-AMG uptake
MEASURED_METRIC: pIC50
Please treat pIC50 as minus the base-10 logarithm of the molar concentration.

CC(C)c1[nH]nc(O[C@@H]2O[C@H](CO)[C@@H](O)[C@H](O)[C@H]2O)c1Cc1ccccc1OCc1ccccc1    4.00
Cc1cc(O)ccc1Cc1c(C(C)C)n[nH]c1O[C@@H]1O[C@H](CO)[C@@H](O)[C@H](O)[C@H]1O    5.36
Cc1ccc(Cc2c(O[C@@H]3O[C@H](CO)[C@@H](O)[C@H](O)[C@H]3O)n[nH]c2C(C)C)c(C)c1    5.33
OC[C@H]1O[C@@H](Oc2n[nH]c(C(F)(F)F)c2Cc2ccccc2OCc2ccccc2)[C@H](O)[C@@H](O)[C@@H]1O    4.39

Would you kindly share the measured pIC50 for O=C(CCc1ccc(O)cc1)c1c(O)cc(O)cc1O[C@@H]1O[C@H](CO)[C@@H](O)[C@H](O)[C@H]1O ?
7.02

----------
In this section we review reported IC50 values for a set of compounds.
SYSTEM_NAME: Sodium/glucose cotransporter 2 (Homo sapiens)
TEST: Inhibition of human SGLT2 expressed in COS7 cells assessed as reduction of [14C]-AMG uptake
Enter your answer as a number in µM; do not include the unit.

CCc1ccc(Cc2c(C(C)C)n[nH]c2O[C@@H]2O[C@H](CO)[C@@H](O)[C@H](O)[C@H]2O)cc1    0.068
CC(C)c1[nH]nc(O[C@@H]2O[C@H](CO)[C@@H](O)[C@H](O)[C@H]2O)c1Cc1ccccc1    2.02

Sodium/glucose cotransporter 2 (Homo sapiens) / IC50 / CC(C)c1[nH]nc(O[C@@H]2O[C@H](CO)[C@@H](O)[C@H](O)[C@H]2O)c1Cc1ccccc1O : value?
75.9

Sodium/glucose cotransporter 2 (Homo sapiens) / IC50 / Cc1[nH]nc(O[C@@H]2O[C@H](CO)[C@@H](O)[C@H](O)[C@H]2O)c1Cc1ccccc1OCc1ccccc1 : value?
5.01

Sodium/glucose cotransporter 2 (Homo sapiens) / IC50 / Cc1ccc(Cc2c(O[C@@H]3O[C@H](CO)[C@@H](O)[C@H](O)[C@H]3O)n[nH]c2C(C)C)cc1 : value?
0.231

Sodium/glucose cotransporter 2 (Homo sapiens) / IC50 / OC[C@H]1O[C@@H](Oc2[nH]nc(C(F)(F)F)c2Cc2cccc(O)c2)[C@H](O)[C@@H](O)[C@@H]1O : value?
2.79
